# measurement.protocol: Steady state oral/IV rat PK and compound penetration into spine and brain (Example 16)
# Format: in vivo, Sprague-Dawley rats
# study.conditions: male, Sprague-Dawley, rat, plasma, po, 10 mg/kg, DAY 2, 10 mg/kg PO once per day, plasma
property.name: Cmax (ng/mL)
Answer in ng/mL, number only, no unit symbol.

What value of Cmax has been reported for the following compound? [2H]C([2H])([2H])c1ccc(C#Cc2ccc(S(=O)(=O)N[C@H](Cc3c[nH]c4ccccc34)C(=O)O)s2)cc1 [Compound 118]
1340

---

# measurement.protocol: Steady state oral/IV rat PK and compound penetration into spine and brain (Example 16)
# Type: in vivo, Sprague-Dawley rats
# study.conditions: male, Sprague-Dawley, rat, plasma, po, 20 mg/kg, DAY 2, 20 mg/kg PO once per day, plasma
# Experimental: It is important if one is observing biochemical effects in the spine and brain that one is able to show clear evidence that the compound being tested is in fact able to penetrate to those areas of the body. […] On the third after dosing the rats were then sacrificed after taking blood samples and the level of compound measured in the spine and brain. […] […] The plasma, brain and spinal tissue samples were analyzed for test article concentration using a Research Grade LC-MS/MS Assay.
property.name: half-life (h)
Answer in h, number only, no unit symbol.

What value of half-life has been reported for the following compound? [2H]C([2H])([2H])c1ccc(C#Cc2ccc(S(=O)(=O)N[C@H](Cc3c[nH]c4ccccc34)C(=O)O)s2)cc1
1.28

---

# measurement.protocol: Steady state oral/IV rat PK and compound penetration into spine and brain (Example 16)
# Format: in vivo, Sprague-Dawley rats
# study.conditions: male, Sprague-Dawley, rat, plasma, po, 20 mg/kg, DAY 1, 20 mg/kg PO, plasma
property.name: AUC(0-inf) (ng·h/mL)
Answer in ng·h/mL, number only, no unit symbol.

What value of AUC(0-inf) has been reported for the following compound? [2H]C([2H])([2H])c1ccc(C#Cc2ccc(S(=O)(=O)N[C@H](Cc3c[nH]c4ccccc34)C(=O)O)s2)cc1
6520

---

# measurement.protocol: Steady state oral/IV rat PK and compound penetration into spine and brain (Example 16)
# Type: in vivo, Sprague-Dawley rats
# study.conditions: male, Sprague-Dawley, rat, plasma, po, 20 mg/kg, DAY 1, 20 mg/kg PO, plasma
property.name: half-life (h)
Answer in h, number only, no unit symbol.

What value of half-life has been reported for the following compound? [2H]C([2H])([2H])c1ccc(C#Cc2ccc(S(=O)(=O)N[C@H](Cc3c[nH]c4ccccc34)C(=O)O)s2)cc1
1.2

---

# measurement.protocol: Steady state oral/IV rat PK and compound penetration into spine and brain (Example 16)
# Assay type: in vivo, Sprague-Dawley rats
# study.conditions: male, Sprague-Dawley, rat, plasma, po, 40 mg/kg, DAY 3, 40 mg/kg PO once per day, plasma
property.name: Cmax (µg/mL)
Answer in µg/mL, number only, no unit symbol.

What value of Cmax has been reported for the following compound? [2H]C([2H])([2H])c1ccc(C#Cc2ccc(S(=O)(=O)N[C@H](Cc3c[nH]c4ccccc34)C(=O)O)s2)cc1 [Compound 118]
5.02

---

# measurement.protocol: Steady state oral/IV rat PK and compound penetration into spine and brain (Example 16)
# Format: in vivo, Sprague-Dawley rats
# study.conditions: male, Sprague-Dawley, rat, plasma, po, 20 mg/kg, DAY 3, 20 mg/kg PO once per day, plasma
property.name: AUC(0-t)

What value of AUC(0-t) has been reported for the following compound? [2H]C([2H])([2H])c1ccc(C#Cc2ccc(S(=O)(=O)N[C@H](Cc3c[nH]c4ccccc34)C(=O)O)s2)cc1
8820 ng·h/mL
